System: CCRIS mutagenicity, Ames/micronucleus/aberration tests
assay: CCRIS mutagenicity studies
reported.conditions: Test System: AMES SALMONELLA TYPHIMURIUM; Strain/Indicator: TA94; Metabolic Activation: RAT, LIVER, S-9, AROCLOR 1254; Method: SPOT TEST
The source made the active and inactive calls. No rule for the calls is given here.
endpoint.label: mutagenic call

In [3]: df
Out[3]:
                                   compound  recorded_measurement
0       CC(C)(O)[C@H]1Cc2cc3ccc(=O)oc3cc2O1    inactive; negative
1  C=CC(C)(C)c1cc2cc3c(cc2oc1=O)OC(C(C)(C)O)C3 (centres undefined)    inactive; negative
2    CC1(C)O[C@H]1COc1c2ccoc2cc2oc(=O)ccc12    inactive; negative
3          CC(C)=CCOc1c2occc2cc2ccc(=O)oc12    inactive; negative
